system: PPARg:RXRa 90nM:30nM, anti-RXR (NR concentration 90 nM, RXRa partner concentration 30 nM); assay: PBM binding z-score (relative to random genomic background probes); higher = stronger binding; sequences stand for … in GC…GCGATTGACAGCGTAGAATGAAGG
Criterion: PBM binding z-score meeting or surpassing 6. Met: true (1). Not met: false (0).

* ATATGTAGGTTAGGTTCATTCAGAAAGTAGGGAA | false (0)

In: Answer whether PBM binding z-score of CCGAGTAGGTTACGAGGGGGCGTTCAGTGCGAAT is greater than or equal to 6.
Out: false (0)

In: Answer whether PBM binding z-score of CTGTGTAGGTTAAGGGGGTCATTCAGTTTGAAAG is greater than or equal to 6.
Out: false (0)

In: Answer whether PBM binding z-score of CGAACTAGTTCACCAGGACAGTGAAGAGGTTGGA is greater than or equal to 6.
Out: false (0)

In: Answer whether PBM binding z-score of CCTACTGGGCCAAAGGTCTTTGATTCCAATGCTC is greater than or equal to 6.
Out: true (1)

In: Answer whether PBM binding z-score of CGAACTAGGTCAAAGCACAGTGAAAGGCGACGTA is greater than or equal to 6.
Out: true (1)

In: Answer whether PBM binding z-score of CGAACTTGGTCACCAGGACAGTGAAGAGGTTGGA is greater than or equal to 6.
Out: false (0)

In: Answer whether PBM binding z-score of CGAACTAGGTCAAAGGACAGGGAAAGGCGACGTA is greater than or equal to 6.
Out: true (1)

In: Answer whether PBM binding z-score of CCTAGTTGGTCAGGAGGTCACAAACCGGATATGA is greater than or equal to 6.
Out: false (0)

In: Answer whether PBM binding z-score of CGAACTAGGTCACCAGAACAGTGAAGAGGTTGGA is greater than or equal to 6.
Out: true (1)

In: Answer whether PBM binding z-score of ATATGTAGGTTAGGGTCATACAGAAAGTAGGGAA is greater than or equal to 6.
Out: true (1)

In: Answer whether PBM binding z-score of TCGAGTAGGTTAAGGGGGCATTCAGGGATGAAGA is greater than or equal to 6.
Out: false (0)

In: Answer whether PBM binding z-score of TCGAGTAGGTTACGGGGGCAATCAGGGATGAAGA is greater than or equal to 6.
Out: false (0)

In: Answer whether PBM binding z-score of CGTCCAAGGTCACAGGAGGTCAGTGAAGACAGAT is greater than or equal to 6.
Out: false (0)

Just for reference, the supplement of paper PMC6555819 is where these values come from.
